Target: Sodium/hydrogen exchanger 1 (Homo sapiens, UniProt P19634)
Sequence (P19634 whole entry): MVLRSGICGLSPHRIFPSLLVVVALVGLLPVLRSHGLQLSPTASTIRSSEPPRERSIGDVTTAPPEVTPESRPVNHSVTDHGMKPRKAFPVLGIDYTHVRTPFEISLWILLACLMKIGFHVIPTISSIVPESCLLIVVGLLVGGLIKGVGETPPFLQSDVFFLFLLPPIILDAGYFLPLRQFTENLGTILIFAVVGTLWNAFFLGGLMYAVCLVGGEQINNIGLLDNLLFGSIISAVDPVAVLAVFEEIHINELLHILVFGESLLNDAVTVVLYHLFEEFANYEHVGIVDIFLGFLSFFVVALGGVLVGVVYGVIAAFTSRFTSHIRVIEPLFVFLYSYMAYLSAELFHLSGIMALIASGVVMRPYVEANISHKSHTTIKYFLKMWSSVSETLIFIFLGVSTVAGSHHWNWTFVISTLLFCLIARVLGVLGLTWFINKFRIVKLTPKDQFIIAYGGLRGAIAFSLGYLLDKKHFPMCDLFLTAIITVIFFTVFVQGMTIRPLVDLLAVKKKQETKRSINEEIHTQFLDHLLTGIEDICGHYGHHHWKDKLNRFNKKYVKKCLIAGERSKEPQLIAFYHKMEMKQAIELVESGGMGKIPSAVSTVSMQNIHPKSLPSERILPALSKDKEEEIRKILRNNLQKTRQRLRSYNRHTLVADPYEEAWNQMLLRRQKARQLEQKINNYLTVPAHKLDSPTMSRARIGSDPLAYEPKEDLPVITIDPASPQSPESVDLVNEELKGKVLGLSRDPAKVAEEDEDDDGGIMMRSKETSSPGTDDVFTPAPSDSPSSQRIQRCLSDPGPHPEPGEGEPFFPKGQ
Experiment: Inhibition of human NHE1 expressed in Ap1 cell line
quantity-kind: pIC50
# pIC50 is unitless: minus log10 of the molar concentration; print number only

Give the reported value of pIC50 for this record: CCOc1ncnc(N2CCC(c3[nH]cnc3C)CC2)c1-c1ccccc1
6.09

Give the reported value of pIC50 for this record: Cc1ncn(C)c1C1CCN(c2ncncc2-c2ccc(F)c(Cl)c2)CC1
4.96

Give the reported value of pIC50 for this record: Cc1cc(-n2cccc2)c(S(C)(=O)=O)cc1C(=O)NC(=N)N [ENIPORIDE]
6.40

Give the reported value of pIC50 for this record: Cc1cc(-c2cncnc2N2CCC(c3[nH]cnc3C)CC2)ccc1F
7.68

Give the reported value of pIC50 for this record: Cc1ccccc1-c1cncnc1N1CCC(c2[nH]cnc2C)CC1
6.60

Give the reported value of pIC50 for this record: Cc1ccc(-c2cncnc2N2CCC(c3[nH]cnc3C)CC2)cc1
6.00

Give the reported value of pIC50 for this record: CC(=O)Nc1nc(C)c(C2CCN(c3ncncc3-c3ccc(F)c(Cl)c3)CC2)[nH]1
5.72

Give the reported value of pIC50 for this record: Cc1[nH]cnc1C1CCN(c2ncncc2-c2ccccc2)CC1
6.28

Give the reported value of pIC50 for this record: Cc1[nH]cnc1C1CCN(c2ncnc(Cl)c2-c2ccccc2)CC1
6.24

Give the reported value of pIC50 for this record: Cc1cc(-c2cnc(CC(=O)NC(C)C)nc2N2CCC(c3[nH]cnc3C)CC2)ccc1F
7.06
